target: Heat shock protein HSP90 (Homo sapiens) (UniProt P07900+P08238); test: Inhibition of Hsp90 in human MCF7 cells assessed as induction of Raf degradation at 0.5 fold IC50 after 24 hrs by Western blot method; format: cell-based
Active and inactive are the calls of the source. The rule behind the calls is not given here.
Outcome codes: yes (active), no (inactive)

[
  {
    "item_smiles": "COc1ccc(C(=O)Nc2cc3cc(OC)c(O[C@@H]4OC(C)(C)[C@H](OC)[C@@H](O)[C@H]4O)c(C)c3oc2=O)cc1-c1cc(C(=O)Nc2cc3cc(OC)c(O[C@@H]4OC(C)(C)[C@H](OC)[C@@H](O)[C@H]4O)c(C)c3oc2=O)ccc1OC",
    "answer_label": "yes"
  },
  {
    "item_smiles": "Cc1c(OC2CCN(C)CC2)ccc2cc(NC(=O)C/C=C/CC(=O)Nc3cc4ccc(OC5CCN(C)CC5)c(C)c4oc3=O)c(=O)oc12",
    "answer_label": "yes"
  },
  {
    "item_smiles": "Cc1c(OC2CCN(C)CC2)ccc2cc(NC(=O)CCC/C=C/CCCC(=O)Nc3cc4ccc(OC5CCN(C)CC5)c(C)c4oc3=O)c(=O)oc12",
    "answer_label": "yes"
  },
  {
    "item_smiles": "COc1c(OC2CCN(C)CC2)ccc2cc(NC(=O)C/C=C/CC(=O)Nc3cc4ccc(OC5CCN(C)CC5)c(OC)c4oc3=O)c(=O)oc12",
    "answer_label": "yes"
  },
  {
    "item_smiles": "COc1ccc(C(=O)Nc2cc3ccc(O[C@@H]4OC(C)(C)[C@H](OC)[C@@H](O)[C@H]4O)c(C)c3oc2=O)cc1-c1cc(C(=O)Nc2cc3ccc(O[C@@H]4OC(C)(C)[C@H](OC)[C@@H](O)[C@H]4O)c(C)c3oc2=O)ccc1OC",
    "answer_label": "yes"
  },
  {
    "item_smiles": "COc1c(OC2CCN(C)CC2)ccc2cc(NC(=O)CCC/C=C/CCCC(=O)Nc3cc4ccc(OC5CCN(C)CC5)c(OC)c4oc3=O)c(=O)oc12",
    "answer_label": "yes"
  },
  {
    "item_smiles": "COc1c(OC2CCN(C)CC2)ccc2cc(NC(=O)CC/C=C/CCC(=O)Nc3cc4ccc(OC5CCN(C)CC5)c(OC)c4oc3=O)c(=O)oc12",
    "answer_label": "no"
  },
  {
    "item_smiles": "COc1cc2cc(NC(=O)C/C=C/CC(=O)Nc3cc4cc(OC)c(OC5CCN(C)CC5)c(C)c4oc3=O)c(=O)oc2c(C)c1OC1CCN(C)CC1",
    "answer_label": "yes"
  },
  {
    "item_smiles": "COc1cc2cc(NC(=O)CC/C=C/CCC(=O)Nc3cc4cc(OC)c(OC5CCN(C)CC5)c(C)c4oc3=O)c(=O)oc2c(C)c1OC1CCN(C)CC1",
    "answer_label": "yes"
  },
  {
    "item_smiles": "Cc1c(OC2CCN(C)CC2)ccc2cc(NC(=O)CC/C=C/CCC(=O)Nc3cc4ccc(OC5CCN(C)CC5)c(C)c4oc3=O)c(=O)oc12",
    "answer_label": "yes"
  },
  {
    "item_smiles": "Cc1c(OCCCN(C)C)ccc2cc(NC(=O)C/C=C/CC(=O)Nc3cc4ccc(OCCCN(C)C)c(C)c4oc3=O)c(=O)oc12",
    "answer_label": "no"
  },
  {
    "item_smiles": "COc1cc2cc(NC(=O)CCC/C=C/CCCC(=O)Nc3cc4cc(OC)c(OC5CCN(C)CC5)c(C)c4oc3=O)c(=O)oc2c(C)c1OC1CCN(C)CC1",
    "answer_label": "yes"
  },
  {
    "item_smiles": "COc1ccc(C(=O)Nc2cc3ccc(O[C@@H]4OC(C)(C)[C@H](OC)[C@@H](O)[C@H]4O)c(OC)c3oc2=O)cc1-c1cc(C(=O)Nc2cc3ccc(O[C@@H]4OC(C)(C)[C@H](OC)[C@@H](O)[C@H]4O)c(OC)c3oc2=O)ccc1OC",
    "answer_label": "yes"
  }
]

Source: ChEMBL document CHEMBL1821679
